Reported melting point is given for each of the following molecules.

Reference set, count: 3
[[record]]
smiles_text = "CCCCCCCCCCCCCCC(CCC(=O)OCc1ccccc1)(C(=O)O)C(=O)O"
readout_value = "47 to 49 °C"

[[record]]
smiles_text = "COc1cccc(-c2cc(C(C)(C)C)c(O)c(C(C)(C)C)c2)c1"
readout_value = "96 to 98 °C"

[[record]]
smiles_text = "CCCC(=O)c1cnc2c(COC(=O)c3ccc(OC)cc3)cccc2c1Nc1ccc(O)cc1C"
readout_value = "171 to 175 °C"


With those in mind, consider the next molecule.
Indicate the recorded melting point value for this molecule: `COc1ccnc(CCc2nc3cc(-c4ccc(S(=O)(=O)Nc5ccc(C)cc5)cc4)cnc3[nH]2)c1`
219 to 220 °C

* * *

result.type: melting point

[[record]]
molecule = "O=C(CCN1CCC2(CC1)OC(=O)c1ccccc12)c1ccccc1"
readout_value = "108 to 110 °C"

[[record]]
molecule = "COc1cc(-c2cc(=O)c3c(OC)c(OC)c(OC)c(OC)c3o2)ccc1OCc1ccccc1"
readout_value = "109 to 111 °C"

[[record]]
molecule = "O=C(CC1CCOCC1)N[C@H]1CC[C@H](CCN2CCN(c3nccc4ccoc34)CC2)CC1"
readout_value = "213 °C"

[[record]]
molecule = "CCCc1cc(C(=O)NCCC(=O)O)ccc1OC(C(=O)NS(=O)(=O)c1ccc(C(C)C)cc1)c1ccc2c(c1)OCO2 (stereo not given)"
readout_value = "199 to 201 °C"


With those in mind, consider the next molecule.
Indicate the recorded melting point value for this molecule: `NC(=O)CC(CC(N)=O)c1cccc(Cl)c1Cl`
194 to 196 °C

* * *

result.type: melting point

Indicate the recorded melting point value for this molecule: `C#CCN1CCC(C(C)(C)CO)CC1`
78 to 82 °C

Indicate the recorded melting point value for this molecule: `CCCCOc1ccc(-c2ncc(Br)cn2)cn1`
134 to 138 °C

Indicate the recorded melting point value for this molecule: O=C1N(Cc2cnccc2C(F)(F)F)c2ccccc2C12COc1cc3c(cc12)OCCO3 (stereo not drawn)
131 to 132 °C

Indicate the recorded melting point value for this molecule: `CCN1C[C@@H](C(=O)OC(C)(C)C)N(C(=O)[C@H](C)CSC(=O)c2ccccc2)C1=O`
92 to 93 °C

Indicate the recorded melting point value for this molecule: `NS(=O)(=O)c1ccc(NC(=O)c2ccccc2SSc2ccccc2C(=O)O)cc1`
276 to 278 °C

Indicate the recorded melting point value for this molecule: O=C1CCCCC1C(C[N+](=O)[O-])c1ccc(OCc2ccccc2)cc1 (racemic)
143 to 144 °C

Indicate the recorded melting point value for this molecule: `CC(C)c1cc(C(C)C)c(CC(=O)c2ccc(-c3ccccc3)c(OS(N)(=O)=O)c2-c2ccccc2)c(C(C)C)c1`
129 to 132 °C

Indicate the recorded melting point value for this molecule: CC(=O)N(O)C(C)c1csc2ccccc12 (stereo not drawn)
123 to 125 °C

* * *

Reported melting point is given for each of the following compounds.

Reference set, count: 4
[[record]]
compound = "CCC(Oc1cc(Cl)cc(Cl)c1)C(=O)NC(C)(C)C#CCOC (centres undefined)"
readout_value = "103 to 104 °C"

[[record]]
compound = "Cc1ccccc1C(CCC(=O)O)Oc1cc(OCc2cccnc2)ccc1C(=O)c1ccccc1 (centres undefined)"
readout_value = "185 to 186 °C"

[[record]]
compound = "Cc1cc(C)c2c(c1C)OCC2c1ccc(C2OCCO2)cc1 (centres undefined)"
readout_value = "107 to 108 °C"

[[record]]
compound = "COc1cc(NC(=S)NCCN)cc(OC)c1"
readout_value = "125 to 126 °C"


Indicate the recorded melting point value for this compound: `Cc1nc(N(C)N)[nH]c(=O)c1CCO`
180 °C

Indicate the recorded melting point value for this compound: `O=C(NC(=S)Nc1ccccc1-c1ccc(F)cc1)c1ccccc1`
123 to 124 °C

Indicate the recorded melting point value for this compound: `FC(F)(F)Oc1ccc(-c2ccc(CCl)cn2)cc1`
34 to 36 °C

Indicate the recorded melting point value for this compound: NC(=O)N(O)Cc1ccc(C(O)C#Cc2cccc(Cl)c2)cc1 (centres undefined)
118 to 119 °C

Indicate the recorded melting point value for this compound: Cc1ccc(N2CCN3C(=O)CCC3C2=O)cc1 (centres undefined)
115 to 117 °C
